measured_target: T1, canine PD-1 protein amino acids 25-168 with His tag (canine, UniProt A0A090BAM7 25-168)
T1 construct: Expressed in Expi293F cells; used as immunogen and as antigen in ELISA and Octet; also called PD-1 His
T1 sequence (A0A090BAM7 entry or part of it limits assumed): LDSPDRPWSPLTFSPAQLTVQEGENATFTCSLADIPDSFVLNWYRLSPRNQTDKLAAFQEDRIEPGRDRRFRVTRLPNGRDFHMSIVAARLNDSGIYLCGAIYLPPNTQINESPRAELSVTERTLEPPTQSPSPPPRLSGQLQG
test: Octet BLI, supernatant captured by anti-mouse IgG Fc, PD-1 His 20 nM
assay_metric: koff (s⁻¹)
Enter your answer as a number in s⁻¹; do not include the unit.

Solved entries:
PD-1 A-M1 (antibody, mouse IgG1, V domains shown, Mouse IgG1 kappa, tested as hybridoma supernatant; also called 2C08) VH: EVQLQQSGAELVKPGASVKLSCTASGFNIKDTYMHWVKQRPEQGLEWIGRIDPAIDNTKYDPKFQGKATITADTSSNTAYLQLSSLTSEDTAVYYCASGFYTMDYWGQGTSVTVSS VL: QIVLTQSPAIMSASPGEKVTMTCSASSSVTYMYWFQQKPGSSPRLWIYDTSNLVSGVPARFSGSRSGTSYSLTISSMEAEDAATYYCQQYSGHPSSFGSGTKLEIK
0.00044
PD-1 A-M23 (antibody, mouse IgG1, V domains shown, Mouse IgG1 kappa, hybridoma supernatant; also called 18A08) VH: EVRLQQSGAELVKPGASVKLSCTASGFNIKDTYLHWLKERPEQGLEWIGRIDPAIGNTRYDPKFQVKATITADTSSNTAYLQLSSLTSEDSAVYYCARGFYGMDYWGQGTSVTVSS VL: QIVLTQSPAIMSASPGEKVTMTCSASSSVSYMFWYQQKPGSSPRLWIYDTSNLVSGVPARFSGSRSGTSYSLTISSMEAEDAATYYCQQYSGYPYTFGGGTKLEIK
0.000159
PD-1 A-M10 (antibody, mouse IgG1, V domains shown, Mouse IgG1 kappa, hybridoma supernatant; also called 8H01) VH: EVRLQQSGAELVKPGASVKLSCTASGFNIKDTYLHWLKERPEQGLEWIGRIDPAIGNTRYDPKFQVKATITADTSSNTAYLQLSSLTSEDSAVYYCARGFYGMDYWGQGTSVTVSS VL: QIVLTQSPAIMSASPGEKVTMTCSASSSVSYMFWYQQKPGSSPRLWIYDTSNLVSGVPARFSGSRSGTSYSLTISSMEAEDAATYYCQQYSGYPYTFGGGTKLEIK
6.96e-06

Dear colleague, I am looking for the recorded koff of the following binder: PD-1 A-M11 (antibody, V domains shown, Mouse IgG1 kappa, hybridoma supernatant; The VL is therefore uncertain; also called 9B04) VH: EVQLQQSGAEVVKPGASVKLSCTASGFNIKDTYMHWVKQRPEQGLEWIGRIDPAIGNPKYDPKFQGRATITADTSSNTAYLQLSSLTSEDTAVYYCASGFYAMDCWGQGTSVTVSS VL: QIVLTQSPAIMSASPGEKVTMTCSASSSITYMFWYQQKPGSSPRLWIYDTSNLVSGVPARFSGSKSGTSYSLTITSMEAEDAATYYCQQYSGYPSTFGSGTKLEIK 0.000312

Can you share its koff? I mean this binder: PD-1 A-M15 (antibody, mouse IgG1, V domains shown, Mouse IgG1 kappa, hybridoma supernatant; also called 11E10) VH: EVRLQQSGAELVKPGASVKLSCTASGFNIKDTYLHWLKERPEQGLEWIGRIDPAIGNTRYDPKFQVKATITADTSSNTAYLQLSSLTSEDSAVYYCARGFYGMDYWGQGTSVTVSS VL: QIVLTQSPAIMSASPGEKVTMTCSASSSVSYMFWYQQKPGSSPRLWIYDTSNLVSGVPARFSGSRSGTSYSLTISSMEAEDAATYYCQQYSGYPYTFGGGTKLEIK 0.000608
